Sourced from PubChem BioAssay

nuclear beta-catenin stimulation values by entry
# method description: stimulators of nuclear beta-catenin in C2C12, primary screen, imaging, WNT3A-conditioned medium, mouse C2C12, NPC library (AID 1117326); note: reference of the scale not given here
# condition notes: at 10 µM, stronger effect = higher value
Please state the figure in %; there is no need to write the unit.

Examples with answers:
compound: O=C(NC(=O)c1c(F)cccc1F)Nc1cc(Cl)c(OC(F)(F)C(F)C(F)(F)F)cc1Cl (stereo not drawn)
nuclear beta-catenin stimulation / %: 2.8
//
compound: NC(=O)OCCCc1ccccc1
nuclear beta-catenin stimulation / %: 0.8
//
compound: Clc1ccccc1N1CCNCC1
nuclear beta-catenin stimulation / %: 0.1
//
compound: CCCOC(=O)Cc1ccc(OCC(=O)N(CC)CC)c(OC)c1
nuclear beta-catenin stimulation / %: 0.4
//
compound: CC(=O)[O][Hg][c]1ccccc1
nuclear beta-catenin stimulation / %: 14.5

Requested read-out: nuclear beta-catenin stimulation. Entry: C[N+]1(C)[C@@H]2CC[C@H]1CC(OC(=O)C(CO)c1ccccc1)C2 (stereo partly drawn)
0.5

Requested field: nuclear beta-catenin stimulation. Item: `C=C(C)[C@H]1Cc2c(ccc3c2O[C@@H]2COc4cc(OC)c(OC)cc4[C@@H]2C3=O)O1`
92.8

If you can, please state the reported nuclear beta-catenin stimulation value of CCCOC(=O)c1cncn1C(C)c1ccccc1 (stereo not drawn) .
3.6

Bench note: what nuclear beta-catenin stimulation did `Nc1ccncc1` show?
-0.9

I am curious: what nuclear beta-catenin stimulation value has been reported for `Oc1cc(Cl)ccc1Oc1ccc(Cl)cc1Cl` ?
1.1

// query nuclear beta-catenin stimulation value for entry O=C1OC2(c3cc(Br)c(O)cc3Oc3c2cc(Br)c(O)[c]3[Hg])c2ccccc21 (stereo not drawn)
57.5

Recorded nuclear beta-catenin stimulation for CC(C)(C)NCC(O)c1ccccc1Cl (stereo not drawn) , please?
-0.7

Entry `O=S(=O)(O)c1cc(O)ccc1O` has what nuclear beta-catenin stimulation?
0.1

====

Reported values of activity remaining for individual entries
# Tested on: Aerobactin synthetase IucA (Klebsiella pneumoniae hvKP1)
# method description: Biochemical IucA enzyme inhibition primary screen of the Spectrum library (AID 1346200);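 note: 100% = wells without compound and 0% = wells lacking enzyme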
# condition notes: malachite green pyrophosphate, A620, at 8 µM, stronger effect = lower value
Give a bare numeral; the unit % is implied.

compound: CN=C(N)NCCC[C@H](N)C(=O)O
unit label: %
activity remaining: 116
--
compound: N.N.O=C(O)C1(C(=O)O)CCC1.[Pt]
unit label: %
activity remaining: 94.6
--
compound: CCCCC(CC)CN1CN(CC(CC)CCCC)CC(C)(N)C1 (configuration not stated)
unit label: %
activity remaining: 89.7
--
compound: Oc1c(Cl)cc(Cl)c2cccnc12
unit label: %
activity remaining: 113

Given the entry `NCCS` , report its measured activity remaining.
117

What does the data say about its activity remaining? Entry: `COC(=O)C1=C(C)NC(C)=C(C(=O)OC)C1c1ccccc1[N+](=O)[O-]`
100

Look up activity remaining: `CC/C(=C(\c1ccccc1)c1ccc(OCCN(C)C)cc1)c1ccccc1`
118

Fill blank: measured activity remaining of the compound `COc1ccc2c(c1OC)OC[C@@H](c1ccc(OC)c(OC)c1OC)C2` is ____.
95.9

Given the compound `CS(=O)(=O)c1ccc([C@@H](O)[C@@H](CO)NC(=O)C(Cl)Cl)cc1` , what is its reported activity remaining?
124

Quick one: activity remaining of CN1CCCCC1c1ccc(-c2cccnc2)nc1 (configuration not stated) ?
113

Given CC(=O)O[C@H]1CC[C@]2(C)C3CC[C@@]4(C)C(CC5O[C@@]6(CCC(C)CO6)[C@@H](C)C54)C3CC[C@@H]2C1 (some centres not stated) , state its recorded activity remaining.
84.2

Would you kindly share the measured activity remaining for `Cc1ccc(S(=O)(=O)NC(=O)NN2CCCCCC2)cc1` ?
117

For `CCOC(N)=O` , what is its reported activity remaining?
107

Form field: reported activity remaining of CC(C)NCC(O)c1ccc(O)c(O)c1 (configuration not stated)
82.7

Which value of activity remaining has been reported for `COc1c2c(cc3c1OCO3)CCN(C)C2` in the records?
120

Query: activity remaining; subject: `CN1C[C@H](C(=O)N[C@]2(C)O[C@@]3(O)[C@@H]4CCCN4C(=O)[C@H](Cc4ccccc4)N3C2=O)C[C@@H]2c3cccc4[nH]cc(c34)C[C@H]21`
118

State the recorded activity remaining for this entry: `CC(=O)OC(C)(C)[C@@H]1Cc2cc3ccc(=O)oc3cc2O1`
95.5

Dear colleague, I am looking for the recorded activity remaining of the following compound: C1CCC(C(CC2CCCCN2)C2CCCCC2)CC1 (configuration not stated)
103

Tell me the measured activity remaining of Clc1ccc(COC(Cn2ccnc2)c2ccc(Cl)cc2Cl)c(Cl)c1 (configuration not stated) , please.
98.2

# activity remaining lookup, item C[C@@H]1O[C@@H](O[C@H]2C[C@@H](O)[C@]3(CO)C4C(CC[C@]3(O)C2)[C@@]2(O)CC[C@H](C3=CC(=O)OC3)[C@@]2(C)C[C@H]4O)[C@H](O)[C@H](O)[C@H]1O (some centres not stated)
122

Need activity remaining, item CC1(C)O[C@@H]2CC3C4CCC5=CC(=O)C=C[C@]5(C)[C@@]4(F)[C@@H](O)C[C@]3(C)[C@]2(C(=O)CO)O1 (some centres not stated)
116

I would be grateful if you could share the reported activity remaining for `CCOC(=O)CCC(=O)O[C@H]1[C@H](O[C@@H]2[C@@H](C)[C@H](O[C@H]3C[C@@](C)(OC)[C@@H](O)[C@H](C)O3)[C@@H](C)C(=O)O[C@H](CC)[C@@](C)(O)[C@H](O)[C@@H](C)C(=O)[C@H](C)C[C@@]2(C)O)O[C@H](C)C[C@@H]1N(C)C` .
113

Name the reported activity remaining value associated with the compound O=C1CCCC2C3CC(CN12)[C@@H]1CCCCN1C3 (some centres not stated)
119

Please report the recorded activity remaining for `CC(C)(C#N)O[C@@H]1O[C@H](CO)[C@@H](O)[C@H](O)[C@H]1O` .
94.3

Name the recorded activity remaining for `CC(C)(N=NC(C)(C)C(=N)N)C(=N)N` .
105

Recorded activity remaining for CO/N=C(/C(=O)NC1C(=O)N2C(C(=O)OC(C)OC(C)=O)=C(COC(N)=O)CSC12)c1ccco1 (configuration not stated) , please?
114
